Origin of values: patent US8013153B2

For each record, write down the corresponding IC50.
- assay_system: murine Aurora-A (Mus musculus, UniProt P97477)
- Construct: replaced with the full length protein encoding the murine Aurora-A; made in house; host or cells: sf9 insect cells
- Sequence (P97477 whole entry): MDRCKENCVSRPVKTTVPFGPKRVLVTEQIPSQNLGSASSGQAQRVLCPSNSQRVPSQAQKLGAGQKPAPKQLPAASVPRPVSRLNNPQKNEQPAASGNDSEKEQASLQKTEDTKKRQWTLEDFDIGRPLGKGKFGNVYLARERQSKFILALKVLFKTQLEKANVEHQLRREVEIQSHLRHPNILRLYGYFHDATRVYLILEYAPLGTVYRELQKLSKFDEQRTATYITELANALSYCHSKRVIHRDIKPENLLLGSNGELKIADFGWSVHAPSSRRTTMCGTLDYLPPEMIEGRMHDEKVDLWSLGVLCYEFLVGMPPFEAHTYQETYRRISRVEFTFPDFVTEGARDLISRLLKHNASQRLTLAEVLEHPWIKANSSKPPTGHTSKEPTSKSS
- test_protocol: Aurora-A Screening Assay
- Format: biochemical

Reference set, count: 2
> print(dat)
                                   compound                              assay.system  value.reported
1  CCNC(=O)Nc1ccc(Oc2ncnc(N)c2C=NOCCOC)cc1Cl [Cpd 104]  murine Aurora-A (Mus musculus, UniProt P97477)        > 100 µM
2  CCNC(=O)Nc1ccc(Oc2ncnc(N)c2C=NOCCN2CCOCC2)cc1Cl [Cpd 103]  murine Aurora-A (Mus musculus, UniProt P97477)        > 100 µM

Consider the following items and state reported IC50 for each.
1. Cc1cc2c(F)c(Oc3ncnc(N)c3C=NOCCN3CCCC3)ccc2[nH]1 [Cpd 13]
2. CON=Cc1c(N)ncnc1Oc1ccc(NC(=O)Nc2ccc(OC)cc2)c(Cl)c1 [Cpd 62]
3. CON=Cc1c(N)ncnc1Oc1ccc(NC(=O)NCCN(C)C)c(Cl)c1 [Cpd 82]
4. CON=Cc1c(N)ncnc1Oc1ccc2c(c1)cc(C)n2C(=O)NCCCCN1CCCC1 [Cpd 42]
5. COCCON=Cc1c(N)ncnc1Oc1ccc2[nH]c(C)cc2c1F [Cpd 28]
6. CON=Cc1c(N)ncnc1Oc1cc(OC)cc(OC)c1 [Cpd 106]
7. Cc1cc2c(F)c(Oc3ncnc(N)c3C=NOCc3ccccc3)ccc2[nH]1 [Cpd 36]
8. CO/N=C/c1c(N)ncnc1Oc1ccc2[nH]ccc2c1 [Cpd 10]

~100 µM
> 100 µM
> 100 µM
> 100 µM
> 100 µM
> 100 µM
> 100 µM
> 10 µM

---

- assay_system: rat VEGF-R2 kinase domain (Rattus norvegicus)
- Construct: amino acids 786-1343 of the rat VEGF-R2 kinase domain; polyhistidine (N)
- test_protocol: VEGF-R2 Screening Assay
- Type: biochemical
- particulars: > means no observed 50% inhibition at the indicated test concentration; ~ means approximately 50% inhibition at that concentration; read-out: IC50 VEGF-R2
readout_name: log10 of IC50 (log10 of the value in µM)
// units: µM (pre-log); metric: IC50; scale: log10

> print(dat)
                            compound.smiles  value.reported
1  CON=Cc1c(N)ncnc1Oc1ccc(NC(=O)NC(C)C)c(Cl)c1           -1.14
2  CCNC(=O)Nc1ccc(Oc2ncnc(N)c2C=NOCCOC)cc1Cl           -1.39

Hi there! I need log10 of IC50 for each item below, if you can.
1. CON=Cc1c(NOC)ncnc1Oc1ccc2[nH]ccc2c1
2. CON=Cc1c(N)ncnc1Oc1ccc(NC(=O)Nc2ncc(C)s2)c(Cl)c1
3. CON=Cc1c(N)ncnc1Oc1ccc2c(c1)cc(C)n2C(=O)NCCCCN1CCCC1
4. CON=Cc1c(N)ncnc1Oc1ccc(NC(=O)Nc2cccc(C)c2)c(Cl)c1
5. CON=Cc1c(N)ncnc1Oc1ccc(NC(=O)Nc2cccnc2)c(Cl)c1

1. 0.68
2. -1.43
3. -1.27
4. -2.70
5. -2.00

---

Record form. Attribute: pIC50. Fill in for each entry.
- assay_system: murine Aurora-A (Mus musculus, UniProt P97477)
- Construct: replaced with the full length protein encoding the murine Aurora-A; made in house; host or cells: sf9 insect cells
- test_protocol: Aurora-A Screening Assay
- Assay type: biochemical
pIC50: −log10 of the molar value.

> print(dat)
                                   molecule  value.reported
1  Cc1cc2c(F)c(Oc3ncnc(N)c3C=NOCC3CCCCC3)ccc2[nH]1 [Cpd 35]          < 4.00
2  CON=Cc1c(N)ncnc1Oc1ccc(NC(C)=O)c(Cl)c1 [Cpd 94]          < 4.00
3  CNC(=O)n1c(C)cc2c(F)c(Oc3ncnc(N)c3C=NOC)ccc21 [Cpd 43]          < 4.00
4  CNC(=O)n1c(C)cc2cc(Oc3ncnc(N)c3C=NOC)ccc21 [Cpd 49]          < 4.00
5  Cc1cc2c(F)c(Oc3ncnc(N)c3C=NOCCCN3CCNCC3)ccc2[nH]1 [Cpd 21]          < 5.00

From here, focus on the item given below.
Consider the molecule shown here: CON=Cc1c(N)ncnc1Oc1ccc(NC(=O)Nc2ccc(F)cc2)c(Cl)c1 [Cpd 60] What is its recorded pIC50?
< 5.00

---

- assay_system: tyrosine kinase KIT (Homo sapiens, UniProt P10721)
- Sequence (P10721 26-976): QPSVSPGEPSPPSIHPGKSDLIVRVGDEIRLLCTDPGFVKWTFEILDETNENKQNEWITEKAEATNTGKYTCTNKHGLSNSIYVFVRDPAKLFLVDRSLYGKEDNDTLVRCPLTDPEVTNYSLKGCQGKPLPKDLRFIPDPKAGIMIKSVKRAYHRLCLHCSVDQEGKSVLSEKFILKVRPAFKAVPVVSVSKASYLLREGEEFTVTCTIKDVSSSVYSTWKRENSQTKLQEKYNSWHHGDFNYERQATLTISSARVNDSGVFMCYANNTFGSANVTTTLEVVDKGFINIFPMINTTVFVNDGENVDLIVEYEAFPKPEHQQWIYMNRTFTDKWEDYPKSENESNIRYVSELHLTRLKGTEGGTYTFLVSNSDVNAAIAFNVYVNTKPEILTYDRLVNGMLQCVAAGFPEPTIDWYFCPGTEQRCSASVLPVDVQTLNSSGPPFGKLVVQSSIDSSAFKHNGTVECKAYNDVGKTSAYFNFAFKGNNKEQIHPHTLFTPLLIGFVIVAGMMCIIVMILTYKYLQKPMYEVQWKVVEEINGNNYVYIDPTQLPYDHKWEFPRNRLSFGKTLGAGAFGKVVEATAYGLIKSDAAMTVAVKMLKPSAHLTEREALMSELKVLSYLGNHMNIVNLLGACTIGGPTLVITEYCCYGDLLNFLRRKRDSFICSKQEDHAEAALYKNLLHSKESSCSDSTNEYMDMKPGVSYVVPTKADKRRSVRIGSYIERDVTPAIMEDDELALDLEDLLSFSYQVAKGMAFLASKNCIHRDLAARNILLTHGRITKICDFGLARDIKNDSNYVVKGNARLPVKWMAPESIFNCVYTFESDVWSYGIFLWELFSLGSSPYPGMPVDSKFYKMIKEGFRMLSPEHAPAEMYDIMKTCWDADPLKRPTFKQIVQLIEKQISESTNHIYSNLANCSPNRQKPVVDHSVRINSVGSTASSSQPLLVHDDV
- test_protocol: KIT Kinase Screening Assay
readout_name: pIC50
Numbers only, as −log10 of the molar value.

Report pIC50 for `CCNC(=O)Nc1ccc(Oc2ncnc(N)c2/C=N/OC)cc1Cl` please.
6.30

---

- assay_system: CDK1:Cyclin-B (Homo sapiens, UniProt P06493)
- Construct: purchased New England Biolabs, Beverly, Mass; 6020; host or cells: insect cells
- Sequence (P06493 whole entry): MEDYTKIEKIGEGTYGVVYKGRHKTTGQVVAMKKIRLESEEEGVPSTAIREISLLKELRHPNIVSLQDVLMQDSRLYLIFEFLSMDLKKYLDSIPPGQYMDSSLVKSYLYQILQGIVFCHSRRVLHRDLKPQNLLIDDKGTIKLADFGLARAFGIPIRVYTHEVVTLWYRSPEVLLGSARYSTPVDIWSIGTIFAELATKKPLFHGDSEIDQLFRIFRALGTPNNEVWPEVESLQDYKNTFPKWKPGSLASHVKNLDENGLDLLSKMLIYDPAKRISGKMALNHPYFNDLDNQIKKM
- Sequence (P14635 whole entry partner): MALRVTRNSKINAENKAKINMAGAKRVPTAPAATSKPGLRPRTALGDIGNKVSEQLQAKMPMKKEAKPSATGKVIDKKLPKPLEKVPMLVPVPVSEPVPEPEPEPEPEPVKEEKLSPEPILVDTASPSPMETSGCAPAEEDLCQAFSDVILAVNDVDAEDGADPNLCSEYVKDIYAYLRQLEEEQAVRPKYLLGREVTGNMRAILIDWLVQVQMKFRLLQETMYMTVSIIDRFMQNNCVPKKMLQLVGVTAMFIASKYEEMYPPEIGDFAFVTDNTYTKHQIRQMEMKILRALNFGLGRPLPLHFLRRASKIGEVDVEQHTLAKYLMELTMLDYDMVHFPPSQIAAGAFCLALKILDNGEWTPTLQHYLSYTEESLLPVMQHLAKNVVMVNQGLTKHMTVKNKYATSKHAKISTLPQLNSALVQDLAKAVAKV
- test_protocol: CDK1 Screening Assay
- Format: biochemical
For each record, write down the corresponding IC50.

Worked examples follow.
> print(dat)
                            compound.smiles                              assay.system  value.reported
1  CON=Cc1c(N)ncnc1Oc1ccc(NC(=O)Nc2nc(C)c(C)s2)c(Cl)c1  CDK1:Cyclin-B (Homo sapiens, UniProt P06493)        > 100 µM
2  Cc1cc2c(F)c(Oc3ncnc(N)c3C=NOCC3CCCCC3)ccc2[nH]1  CDK1:Cyclin-B (Homo sapiens, UniProt P06493)        > 100 µM
3  CNC(=O)n1c(C)cc2cc(Oc3ncnc(N)c3C=NOC)ccc21  CDK1:Cyclin-B (Homo sapiens, UniProt P06493)        > 100 µM
4  Cc1cc2c(F)c(Oc3ncnc(N)c3C=NOCC3CC3)ccc2[nH]1  CDK1:Cyclin-B (Homo sapiens, UniProt P06493)        > 100 µM

Hi! Can you tell me IC50 for each of these molecules?
1. CCCCNC(=O)Nc1ccc(Oc2ncnc(N)c2C=NOC)cc1Cl
2. CON=Cc1c(N)ncnc1Oc1ccc(NC(=O)Nc2cccc(C)c2)c(Cl)c1
3. CON=Cc1c(N)ncnc1Oc1cc(OC)cc(OC)c1
4. CCNC(=O)Nc1ccc(Oc2ncnc(N)c2C=NOC)cc1
5. CNC(=O)Nc1ccc(Oc2ncnc(N)c2C=NOC)cc1F
6. Cc1cc2c(F)c(Oc3ncnc(N)c3C=NOCCN3CCCC3)ccc2[nH]1

1. > 100 µM
2. > 100 µM
3. > 100 µM
4. > 100 µM
5. > 100 µM
6. > 100 µM

---

- assay_system: rat VEGF-R2 kinase domain (Rattus norvegicus, UniProt O08775)
- Construct: amino acids 786-1343 of the rat VEGF-R2 kinase domain; polyhistidine (N)
- Sequence (O08775 786-1343): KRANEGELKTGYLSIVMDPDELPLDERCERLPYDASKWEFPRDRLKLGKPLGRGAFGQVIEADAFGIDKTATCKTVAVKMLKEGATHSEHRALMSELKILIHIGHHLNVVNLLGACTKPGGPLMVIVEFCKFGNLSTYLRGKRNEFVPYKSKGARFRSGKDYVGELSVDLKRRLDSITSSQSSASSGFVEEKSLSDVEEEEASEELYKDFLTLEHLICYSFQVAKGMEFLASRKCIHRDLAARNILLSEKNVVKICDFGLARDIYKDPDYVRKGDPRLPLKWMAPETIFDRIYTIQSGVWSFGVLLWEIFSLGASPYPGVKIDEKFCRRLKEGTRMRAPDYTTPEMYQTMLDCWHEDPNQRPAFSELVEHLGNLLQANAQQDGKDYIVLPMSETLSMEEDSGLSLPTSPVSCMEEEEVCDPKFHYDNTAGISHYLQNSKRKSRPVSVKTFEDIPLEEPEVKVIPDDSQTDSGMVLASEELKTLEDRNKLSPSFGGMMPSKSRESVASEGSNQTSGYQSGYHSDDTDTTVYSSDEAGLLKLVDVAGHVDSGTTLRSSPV
- test_protocol: VEGF-R2 Screening Assay
- Format: biochemical
- particulars: > means no observed 50% inhibition at the indicated test concentration; ~ means approximately 50% inhibition at that concentration; read-out: IC50 VEGF-R2
We label by threshold. Values of IC50 strictly beneath 30 nM are criterion met. Values of 30 nM and up are criterion not met.

These solved cases illustrate the format of a correct answer.
> print(dat)
                                   compound  assigned.category
1  Cc1cc2c(F)c(Oc3ncnc(N)c3C=NOCCCN3CCNCC3)ccc2[nH]1  criterion not met
2    CON=Cc1c(N)ncnc1Oc1ccc(NC(C)=O)c(Cl)c1  criterion not met
3        CNc1ncnc(Oc2ccc3[nH]ccc3c2)c1C=NOC  criterion not met
4     CCNC(=O)Nc1ccc(Oc2ncnc(N)c2C=NOC)cc1C  criterion not met
5  Cc1cc2c(F)c(Oc3ncnc(N)c3C=NOCCCCN3CCCC3)ccc2[nH]1  criterion not met

Report whether reported IC50 is lower than 30 nM (strictly) for `CO/N=C/c1c(N)ncnc1Oc1ccc2[nH]cc(CCNC(C)=O)c2c1`
criterion not met

Item `CON=Cc1c(N)ncnc1Oc1ccc(NC(=O)Nc2ccccc2)c(Cl)c1` : IC50 beneath 30 nM, strictly?
criterion met

---

- assay_system: murine Aurora-A (Mus musculus)
- Construct: replaced with the full length protein encoding the murine Aurora-A; made in house; host or cells: sf9 insect cells
- test_protocol: Aurora-A Screening Assay
- Format: biochemical
readout_name: IC50

// solved cases for IC50 follow
> print(dat)
                            compound.smiles  value.reported
1        CNc1ncnc(Oc2ccc3[nH]ccc3c2)c1C=NOC        > 100 µM
2  CCOC(=O)c1c(C)[nH]c2ccc(Oc3ncnc(N)c3/C=N/OC)cc12        > 100 µM
3  CCCCNC(=O)Nc1ccc(Oc2ncnc(N)c2C=NOC)cc1Cl        > 100 µM

Could you report IC50 for every entry in the following list?
1. CCNC(=O)Nc1ccc(Oc2ncnc(N)c2C=NOC)cc1
2. CON=Cc1c(N)ncnc1Oc1ccc(OCc2ccccc2)cc1
3. CON=Cc1c(N)ncnc1Oc1ccc(NC(=O)Nc2ccccn2)c(Cl)c1

1. > 10 µM
2. > 100 µM
3. > 100 µM

Batch request: IC50 for each of the following compounds.
1. CON=Cc1c(N)ncnc1Oc1ccc(NC(=O)Nc2cccnc2)c(Cl)c1
2. CON=Cc1c(N)ncnc1Oc1ccc(NC(=O)Nc2ccccc2C)c(Cl)c1

1. > 100 µM
2. > 100 µM

Hi, could you look up IC50 for each item in my list?
1. CON=Cc1c(N)ncnc1Oc1ccc(NC(=O)NC2CC2)c(Cl)c1
2. CON=Cc1c(N)ncnc1Oc1ccc(CC(=O)Nc2ccccc2)cc1

1: > 100 µM; 2: > 100 µM
